Origin of the recorded values: patent US5550128A

Tested on: NCI-H460 (non-small cell lung cancer)
Experiment: Human Disease Oriented in vitro Antitumor Screen
Format: cell-based
Conditions: NCI-H460 (Table 5), read-out: Gl50 (the source's name)
pIC50: −log10 of the molar value.
MEASUREMENT NAME: pIC50

C=C(C[C@H](NC(=O)c1ccc(CCc2cnc3nc(N)nc(N)c3n2)cc1)C(=O)O)C(=O)O	> 8.00

* * *

System: HT-29 (colon cancer)
Test: Human Disease Oriented in vitro Antitumor Screen
Format: cell-based
Conditions: HT-29 (Table 5), read-out: Gl50 (the source's name)
MEASUREMENT NAME: IC50

C=C(C[C@H](NC(=O)c1ccc(CCc2cnc3nc(N)nc(N)c3n2)cc1)C(=O)O)C(=O)O	< 10 nM
